B1: tRNA (parent)
chain: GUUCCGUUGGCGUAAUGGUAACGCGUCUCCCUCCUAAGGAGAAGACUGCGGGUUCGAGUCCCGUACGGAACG

- Variants of: B1
- Measurement Notes: yeast fitness, log relative to wild type (ln ratio); higher = fitter; tRNA-Arg(CCU), competitive growth, 37 C, 1 M NaCl
Experimental Endpoint: yeast fitness (ln)

1) U2C C27U A43C C46U C66U A70U C71U: -0.324
2) G6A A43C C46U C66U: -0.00855
3) G6U C27U C46U A70U C71U: -0.214
4) U2G G6A C27U A43C C46U C66A A70G C71U: -0.19
5) G1A U2G G6U C46U C66A C71U: -0.179
6) G1A U2C G6U C46U A69G A70U: -0.0237
7) G1A U2C A43C A70G: -0.0553
8) C27U C71U: -0.0403
9) G6U C27U C46U C66U: -0.209
10) G1A U2G G6A C27U A43C: -0.235
11) G6U C46U C66U A69G C71U: -0.594
12) G1A U2G G6A C27U A43C C66U A70U: -0.236
13) U2G C66A: -0.0285
14) U2G G6U C27U A43C A69G A70U C71U: -0.484
15) C27U A43C A70U: -0.185
16) G1A U2G G6U A43C A69G A70G: -0.277
17) G1A U2G G6A C27U A43C C46U A69G A70G C71U: -0.424
18) G1A U2C C27U A43C C46U C66U A69G A70U C71U: -0.464
19) G1A U2G G6A C27U A43C C46U A69G A70U: -0.279
20) U2C G6U A43C C46U A70U: -0.061
21) G1A U2C C27U C46U A69G C71U: -0.192
22) G1A G6A A43C C71U: -0.257
23) G1A U2G C27U C66U A69G A70U C71U: -0.511
24) G1A G6U C27U C46U C66A C71U: -0.0536
25) G1A G6A C27U C46U A70U C71U: -0.258
26) U2G A43C C46U C66A A70U: -0.0637
27) G1A C27U A70U: -0.112
28) U2C G6A C27U A69G A70G C71U: -0.216
29) G1A G6A C27U A43C C66A A69G A70G C71U: -0.299
30) A43C C66U A69G C71U: -0.436
31) G6A C27U A43C C46U C66U A69G A70G C71U: -0.28
32) G1A U2G G6A A43C A69G A70G: -0.238
33) G1A U2G A43C C66A A70G: -0.241
34) G1A U2C C46U C66U A70G C71U: -0.01
35) G1A G6A C27U C46U A70G: -0.208
36) U2C G6U C66A A69G A70U: -0.25
37) G1A A43C C46U C66U A70G: -0.1
38) G1A G6U C46U C66U A70U: -0.153
39) C27U C46U C71U: -0.028
40) U2C G6A C27U A43C C46U C66U A70U C71U: -0.225
41) U2G G6U A43C C46U C66U: -0.191
42) G1A U2C G6U C46U C66U C71U: -0.0885
43) G1A U2G A43C C46U C66U C71U: -0.223
44) C46U A69G A70U C71U: -0.138
45) C27U C46U C66U A69G: -0.521
46) G1A G6U C27U A43C C46U: -0.258
